Quick reference for inhibition at 50 µg/mL among some compounds
Tested on: T47-D
Assay: MTT cytotoxicity, 48 h, without UVA
Assay type: cell-based, human
Settings: Homo sapiens, T47D, light or radiation study; 48 h; without UVA; I = %inhibition lower than 50%; read-out: Cytotoxic activity T47-D %Inhibition
Experimental: Additionally, the cytotoxicity towards normal cells, human embryonal lung fibroblast cell MRC-5 was also assessed. MDA-MB-231 (triple-negative breast cancer) was obtained from M.D. Anderson Cancer Center, Houston, TX, USA). […] The cytotoxic effect of tested compounds was evaluated in two breast cancer cell lines, MDA-MB-231 and T47-D. Number of survival cells after exposure to tested compounds for 48 h was determined by MTT assay, as previously described.
Return type: number; implicit unit %.

COc1c2occc2c(NC(=O)c2ccc(F)cc2)c2ccc(=O)oc12 [3b] : 49
COc1ccc(C(=O)Nc2c3ccoc3c(OC)c3oc(=O)ccc23)cc1 [3e] : 38
COc1c2occc2c(N)c2ccc(=O)oc12 [compound 2] : 28
COc1c2occc2c(NC(=O)c2cccs2)c2ccc(=O)oc12 [3h] : 25

Continue with the next compound.
Value of inhibition at 50 µg/mL reported for the compound COc1c2occc2c(NC(=O)c2ccco2)c2ccc(=O)oc12 [3g] is 24

###

Quick reference for inhibition at 500 µM among some molecules
target: xanthine oxidase (Homo sapiens, UniProt P47989); experiment: Inhibition of xanthine oxidase (IXO); assay type: biochemical; details: screening concentration 500 µM; read-out: IXO %Inh
Sequence (P47989 whole entry, species assumed): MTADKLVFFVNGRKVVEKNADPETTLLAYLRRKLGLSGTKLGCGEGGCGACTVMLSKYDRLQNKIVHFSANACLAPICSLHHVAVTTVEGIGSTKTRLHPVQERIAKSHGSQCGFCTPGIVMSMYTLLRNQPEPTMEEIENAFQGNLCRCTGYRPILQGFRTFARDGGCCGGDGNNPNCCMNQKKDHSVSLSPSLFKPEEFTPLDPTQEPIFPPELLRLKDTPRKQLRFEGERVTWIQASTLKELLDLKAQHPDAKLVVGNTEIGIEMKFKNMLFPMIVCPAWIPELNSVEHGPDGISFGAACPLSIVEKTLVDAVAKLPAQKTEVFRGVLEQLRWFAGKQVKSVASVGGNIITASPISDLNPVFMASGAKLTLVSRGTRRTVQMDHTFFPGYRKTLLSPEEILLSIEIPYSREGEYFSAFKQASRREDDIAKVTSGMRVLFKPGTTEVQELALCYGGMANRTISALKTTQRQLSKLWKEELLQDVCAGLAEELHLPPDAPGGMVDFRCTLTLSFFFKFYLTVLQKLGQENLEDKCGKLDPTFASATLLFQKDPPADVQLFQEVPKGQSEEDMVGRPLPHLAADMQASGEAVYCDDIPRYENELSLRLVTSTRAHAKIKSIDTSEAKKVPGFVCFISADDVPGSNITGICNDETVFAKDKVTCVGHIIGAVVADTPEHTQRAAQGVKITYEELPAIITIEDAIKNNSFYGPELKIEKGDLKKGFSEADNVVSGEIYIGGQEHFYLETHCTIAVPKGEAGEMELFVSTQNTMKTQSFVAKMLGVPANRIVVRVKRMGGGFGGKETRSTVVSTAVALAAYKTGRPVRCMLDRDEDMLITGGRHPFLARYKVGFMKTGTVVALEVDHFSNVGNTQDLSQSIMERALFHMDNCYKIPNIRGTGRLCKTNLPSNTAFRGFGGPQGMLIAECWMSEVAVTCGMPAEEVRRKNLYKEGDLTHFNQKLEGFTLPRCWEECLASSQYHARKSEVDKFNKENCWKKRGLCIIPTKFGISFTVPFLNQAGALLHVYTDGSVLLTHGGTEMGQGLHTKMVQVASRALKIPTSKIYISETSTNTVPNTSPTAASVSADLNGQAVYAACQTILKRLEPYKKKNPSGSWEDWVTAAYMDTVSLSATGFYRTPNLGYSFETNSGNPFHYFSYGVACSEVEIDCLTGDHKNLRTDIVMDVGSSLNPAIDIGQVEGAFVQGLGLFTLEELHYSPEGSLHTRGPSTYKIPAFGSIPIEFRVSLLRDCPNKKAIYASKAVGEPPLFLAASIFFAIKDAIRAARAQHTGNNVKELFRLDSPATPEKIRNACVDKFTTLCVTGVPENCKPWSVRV
Return type: number; implicit unit %.

Check out these entries, answers already filled in.
CCC(=O)Nc1c2ccoc2c(OC)c2oc(=O)ccc12 [3j] : 29
COc1c2occc2c(NS(=O)(=O)c2ccccc2)c2ccc(=O)oc12 [compound 5] : 21
COc1c2c(c(NC(=S)Nc3ccccc3)c3ccoc13)C(OC)CC(=O)O2 (centres unmarked) [compound 6] : 48
COc1c2occc2c(NC(=O)C(C)C)c2ccc(=O)oc12 [3k] : 17

Continue with the next molecule.
Summary: COc1c2occc2c(NC(C)=O)c2ccc(=O)oc12 [3i] , xanthine oxidase (Homo sapiens, UniProt P47989), inhibition at 500 µM = 47

###

biological target: xanthine oxidase (Homo sapiens, UniProt P47989)
metric: IC50 (µM)
Return type: number; implicit unit µM.

Summary: COc1c2occc2c(NCc2ccccc2)c2ccc(=O)oc12 [4a] , xanthine oxidase (Homo sapiens, UniProt P47989), IC50 = 27.4

###

Molecular target: aromatase (CYP19) (Homo sapiens)
Sequence (P11511 1-503): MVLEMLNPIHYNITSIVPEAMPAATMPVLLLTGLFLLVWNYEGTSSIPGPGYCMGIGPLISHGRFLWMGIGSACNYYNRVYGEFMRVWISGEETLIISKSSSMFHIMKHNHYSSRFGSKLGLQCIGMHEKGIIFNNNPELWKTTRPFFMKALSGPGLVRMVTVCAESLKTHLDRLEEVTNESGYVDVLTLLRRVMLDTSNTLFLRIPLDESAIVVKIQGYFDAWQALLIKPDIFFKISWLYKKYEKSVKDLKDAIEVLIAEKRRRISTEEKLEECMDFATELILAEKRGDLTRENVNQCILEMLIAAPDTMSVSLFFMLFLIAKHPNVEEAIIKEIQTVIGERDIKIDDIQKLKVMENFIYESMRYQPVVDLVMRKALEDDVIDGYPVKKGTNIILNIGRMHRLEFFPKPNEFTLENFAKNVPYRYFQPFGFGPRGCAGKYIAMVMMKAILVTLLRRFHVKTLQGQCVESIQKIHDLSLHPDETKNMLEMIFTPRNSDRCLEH
Assay: Inhibition of aromatase (AIA)
Type: biochemical
Settings: at 12.5 µM; I = %inhibition lower than 50%; read-out: Aromatase inhibitory activity %Inhibition
Procedure: Estrogens are the critical risk factor for breast cancer initiation and progression and the aromatase enzyme involves in the final step conversion of androgens to estrogens[21],[22]. […] In this study, the synthesized psoralen derivatives were also tested for aromatase inhibitory activity (AIA) which is considered to be one of chemopreventive mechanisms for hormone dependent breast cancer. Inhibition of the aromatase was performed using the method designed by Stresser et al.[39].
metric: inhibition at 12.5 µM (%)
Return type: number; implicit unit %.

Check out these entries, answers already filled in.
CCC(=O)Nc1c2ccoc2c(OC)c2oc(=O)ccc12 [3j] : 8
COc1c2occc2c([N+](=O)[O-])c2ccc(=O)oc12 [compound 1] : 34
COc1c2occc2c(NS(=O)(=O)c2ccccc2)c2ccc(=O)oc12 [compound 5] : 33
COc1c2occc2c(NC(=O)C(C)C)c2ccc(=O)oc12 [3k] : 8

Continue with the next molecule.
Value of inhibition at 12.5 µM reported for the molecule COc1c2c(c(NC(=S)Nc3ccccc3)c3ccoc13)C(OC)CC(=O)O2 (centres unmarked) [compound 6] is 18

Cited source: paper PMC9356065
